# Tested on: THRa homodimer (NR concentration 90 nM)
# experiment: PBM binding z-score (relative to random genomic background probes); higher = stronger binding; sequences stand for … in GC…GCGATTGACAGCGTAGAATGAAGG
Cut-off 0.8 on PBM binding z-score, inclusive. At or above means 1.0; below means 0.0.

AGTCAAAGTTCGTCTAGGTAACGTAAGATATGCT
0.0
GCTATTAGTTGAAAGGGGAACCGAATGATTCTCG
0.0
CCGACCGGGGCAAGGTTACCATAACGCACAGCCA
1.0
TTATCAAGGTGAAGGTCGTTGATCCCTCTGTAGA
1.0
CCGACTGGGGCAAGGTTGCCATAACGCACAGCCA
0.0
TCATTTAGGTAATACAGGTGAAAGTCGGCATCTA
1.0
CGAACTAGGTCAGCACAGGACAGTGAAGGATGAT
0.0
TCATATAGGTAGTACAGGTGAAAGTCGGCATCTA
0.0
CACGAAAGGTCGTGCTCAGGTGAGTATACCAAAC
1.0
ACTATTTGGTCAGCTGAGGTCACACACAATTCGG
1.0
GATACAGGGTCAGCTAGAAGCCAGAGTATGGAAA
0.0
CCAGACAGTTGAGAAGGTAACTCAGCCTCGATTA
0.0
